- System: MDA-MB-231 cells
- test.summary: Cellular uptake of metformin sulfonamides in MDA-MB-231 cells (HPLC)
- Assay type: in vitro ADME, human
- applied.conditions: Eadie-Hofstee analysis, transporter II
As shown below, each of these compounds has a reported Vmax, transporter II, MDA-MB-231 value.
Entry rule: numbers only, all in nmol/min/mg.

Exercise: What value of measured Vmax, transporter II, MDA-MB-231 is listed for CN(C)C(=N)N=C(N)NS(=O)(=O)c1cccc(F)c1 ?
Solution: 0.045

Exercise: Next compound up: CN(C)C(=N)N=C(N)NS(=O)(=O)c1ccccc1Cl
Solution: 0.0261

Exercise: Next compound up: CN(C)C(=N)N=C(N)NS(=O)(=O)c1ccccc1F
Solution: 0.443

Exercise: Next compound up: CN(C)C(=N)N=C(N)NS(=O)(=O)c1ccc(Cl)cc1
Solution: 2.20

Exercise: Next compound up: CN(C)C(=N)N=C(N)NS(=O)(=O)c1ccc(F)cc1
Solution: 0.053

Exercise: Next compound up: CN(C)C(=N)N=C(N)NS(=O)(=O)c1cccc(Br)c1
Solution: 0.098

Exercise: Next compound up: CN(C)C(=N)N=C(N)NS(=O)(=O)c1ccc(Br)cc1
Solution: 2.091

Exercise: Next compound up: CN(C)C(=N)N=C(N)NS(=O)(=O)c1ccccc1Br
Solution: 21.44

Exercise: Next compound up: CN(C)C(=N)N=C(N)NS(=O)(=O)c1cccc(Cl)c1
Solution: 0.111

====

- Test system: MDA-MB-231 cells
- test.summary: Cellular uptake of metformin sulfonamides in MDA-MB-231 cells (HPLC)
- Type: in vitro ADME, human
- applied.conditions: Michaelis-Menten curve; read-out: Km MDA-231 cells (Michaelis Menten curves)
measured.property: Km
In your response, put the unit directly after the numeric value.

Exercise: Which measured Km belongs to CN(C)C(=N)N=C(N)NS(=O)(=O)c1ccccc1Cl , tested on MDA-MB-231 cells?
Solution: 8.3 mM

====

- Tested on: MDA-MB-231 cells
- test.summary: Cellular uptake of metformin sulfonamides in MDA-MB-231 cells (HPLC)
- Type: in vitro ADME, human
- applied.conditions: Eadie-Hofstee analysis, transporter II; read-out: Km, transporter II, MDA-MB-231
measured.property: Km (mM)
Entry rule: numbers only, all in mM.

Example molecules with recorded Km:
CN(C)C(=N)N=C(N)NS(=O)(=O)c1cccc(Cl)c1; 5.47
CN(C)C(=N)N=C(N)NS(=O)(=O)c1ccccc1Cl; 3.3
CN(C)C(=N)N=C(N)NS(=O)(=O)c1ccc(F)cc1; 2.22
CN(C)C(=N)N=C(N)NS(=O)(=O)c1cccc(Br)c1; 1.07
CN(C)C(=N)N=C(N)NS(=O)(=O)c1ccccc1F; 2.25
CN(C)C(=N)N=C(N)NS(=O)(=O)c1cccc(F)c1; 3.38

Exercise: Which measured Km belongs to CN(C)C(=N)N=C(N)NS(=O)(=O)c1ccc(Cl)cc1 , tested on MDA-MB-231 cells?
Solution: 4.67

Exercise: Next molecule up: CN(C)C(=N)N=C(N)NS(=O)(=O)c1ccccc1Br
Solution: 11.6

Exercise: Next molecule up: CN(C)C(=N)N=C(N)NS(=O)(=O)c1ccc(Br)cc1
Solution: 2.11

====

- Test system: MDA-MB-231 cells
- test.summary: Cell viability WST-1 assay, MDA-MB-231
- Format: cell-based
- applied.conditions: Homo sapiens, MDA-MB-231, 24 h, 3000 µmol/L, WST-1, 24 h; read-out: percentage of viability of MDA-MB-231 cells
measured.property: viability at 3000 µM

CN(C)C(=N)N=C(N)NS(=O)(=O)c1ccccc1Cl [Compound 1]; ~60%
CN(C)C(=N)N=C(N)NS(=O)(=O)c1ccccc1Br [Compound 4]; ~56.4%
CN(C)C(=N)N=C(N)NS(=O)(=O)c1ccc(F)cc1 [Compound 9]; ~60%
CN(C)C(=N)N=C(N)NS(=O)(=O)c1cccc(Br)c1 [Compound 5]; ~60%

Okay, next one:
Exercise: What value of measured viability at 3000 µM is listed for CN(C)C(=N)N=C(N)NS(=O)(=O)c1cccc(F)c1 [Compound 8] ?
Solution: ~60%

Cited source for all entries: paper PMC7177633
